Documented EC50 across a set of compounds
# Tested on: KB
# methodSummary: Cytotoxicity against human KB cells after 3 days by MTT assay
# cond: 72 h, read-out: ED50 (the source's name)
Give the quantity in µg/mL, number only.

Measured on KB, `C/C=C(\CC[C@@H](C)[C@H]1CC[C@H]2[C@@H]3CC(=O)C4=CC(=O)CC[C@]4(C)[C@H]3CC[C@]12C)C(C)C` has a documented EC50 of 5.9

Value (EC50, KB) for record C=CC(CC[C@@H](C)[C@H]1CC[C@H]2[C@@H]3CC(=O)C4=CC(=O)CC[C@]4(C)[C@H]3CC[C@]12C)(OO)C(C)C (stereo not given in full) = 4

Record for C=CC(CC[C@@H](C)[C@H]1CC[C@H]2[C@@H]3C[C@@H](O)C4=CC(=O)CC[C@]4(C)[C@H]3CC[C@]12C)(OO)C(C)C (stereo not given in full) under target or system KB: EC50 reported as 1.8

I looked up `C/C=C(\CC[C@@H](C)[C@H]1CC[C@H]2[C@@H]3C[C@@H](O)C4=CC(=O)CC[C@]4(C)[C@H]3CC[C@]12C)C(C)C` and its EC50 for KB was 4.6
